Where do the numbers come from? From a melting point compilation (Tetko et al.; mined from patent text by program, amines drawn as free bases though some values may be those of a salt).

reported_endpoint: melting point

Sample records with melting point:
CC(C)[C@H](NC(=O)OCc1ccccc1)C(=O)N(CC(=O)O)C1CCCCCC1; 48 to 51 °C
Cn1cc(CCO)c2c3c(c(-c4ccccc4Cl)cc21)C(=O)NC3=O; 225 to 229 °C
CN(C)c1ccc(CN=C(Cc2ccccc2)N2CC3C(=O)CCC(c4ccccc4)(c4ccccc4)C3C2)cc1 (centres undefined); 186 °C

We now examine a further molecule.
In: Given COC(=O)Cc1nc(-c2ccc(Cl)cc2)oc1-c1ccsc1 , state its recorded melting point.
Out: 127 to 128 °C

###

Reported melting point values are given for each entry in this list.

Some entries whose results are on file:
COc1ccc(F)cc1Oc1c(Cl)ncnc1NS(=O)(=O)c1ccc(Cl)cc1; 169 to 171 °C
COC(=O)C(C)Oc1ccc(Oc2ccc(Br)cc2F)cc1 (stereo not drawn); 62 to 64 °C

// moving on: another record for melting point
In: Sample C=CCOC[C@H](NC(=O)[C@@H](NC(=O)[C@H](Cc1ccc(OCC=C)cc1)NC(=O)OC(C)(C)C)C(C)C)C(=O)OC — what was its melting point?
Out: 109 to 111 °C

###

reported_endpoint: melting point

COC(=O)CCC(=O)c1ccc(-c2ccc(SC)cc2)cc1; 137 to 140 °C
CC(=O)OCCOC(C)n1cc(F)c(=O)[nH]c1=O (stereo unspecified); 121 to 122 °C
C=C1CCN(CC)c2c(CSc3nc4ccccc4[nH]3)cccc21; 148 to 149 °C

In: Please look up its melting point: CSc1nc2c(c(=O)[nH]1)CC2
Out: 215 °C

In: Give its melting point value. Item: CN1C2CCC1CC(N(C)S(=O)(=O)c1ccc(Nc3nccc(Nc4ccc(F)cc4)n3)cc1)C2 (stereo unspecified)
Out: 184 °C

In: Suppose we examine the compound COc1cc(C(=O)N(C(C)C)C2CCCCC2)ccc1Cn1c(CO)nc2ncccc21 ; what melting point value has been reported?
Out: 117 to 119 °C

###

reported_endpoint: melting point

Example entries begin here.
Cc1ccc(O[C@@H](Cc2ccc(O)cc2)C(=O)N2C(=O)OC[C@@H]2Cc2ccccc2)cc1; 135 to 136 °C
COc1ccc(-c2ccc(C(CCC(=O)O)=NO)cc2)cc1; 157 to 160 °C
CC(C)(C)c1cc(-c2nnc(NN)s2)cc(C(C)(C)C)c1O; 109 to 122 °C
Cn1c(COc2ccc(CC3SC(=O)NC3=O)cc2)nc2ccc(Oc3cccc(NC(=O)Nc4cccc(C#N)c4)c3)cc21 (stereo not given); 148 to 154 °C

// next entry
In: Fill in: melting point of CC(C)(C)OC(=O)c1ccc(OCCNC(=O)C2Cc3ccccc3N2S(=O)(=O)c2ccc(-c3ccc(F)cc3F)cc2)cc1 (stereo not given) is ___
Out: 80 °C

###

Each entry below carries its recorded melting point.

Answered cases to consult:
O=C(O)COc1nnc(-c2ccc3c(c2)CCO3)o1; 151 to 153 °C
CN1C[C@H](CN2CCN(C(c3ccccc3)c3ccccc3)CC2)C[C@@H]2c3cccc4[nH]c(Br)c(c34)C[C@H]21; 255 °C
CCCCCCCN(O)C(=O)N(C)C; 30 to 31 °C
CCc1c(C#N)oc(=O)n1S(=O)(=O)c1c(C)noc1C; 117 to 122 °C
CC(C)NC1=NS(=O)(=O)c2sc(Br)cc2N1; 279 °C
Cc1oncc1CN1C(=O)C2(COc3cc4c(cc32)OCO4)c2ccccc21 (stereo not given); 159 to 161 °C
N#CC1CN1C(=O)NC(=O)c1cc2ccccc2o1 (stereo not given); 190 to 192 °C
O=C(O)Cc1cccc2c(-c3ccc(F)cc3)onc12; 170 to 171 °C

In: // returns reported melting point for input CN(C)C(=O)Cc1cccc(C(=O)c2ccccc2)c1N
Out: 123 to 124 °C

In: Please report the recorded melting point for CC1(C)CC(C)(C)CC2(CCC(=O)N2)C1 .
Out: 158 to 160 °C

###

reported_endpoint: melting point

Examples from the recorded data:
C[C@H]1[C@@H](C#N)CCN1c1ccc(C#N)c2ccccc12; 143 to 145 °C
CC(C)n1c(CCN2CCN(c3cccc(C(F)(F)F)c3)CC2)nc2cc(Br)c3ccccc3c21; 161 to 162 °C
CCCc1c(OCCCO)ccc(C(C)=O)c1O; 57 to 59 °C
Cc1ncc(C(=O)N2CC2C#N)s1 (configuration not stated); 90 to 92 °C

In: Entry Cc1ccccc1-c1nc2c(o1)C(=O)c1ccccc1C2=O : reported melting point = ?
Out: 212 °C

In: I am curious: what melting point value has been reported for CCNC(=O)CNC(=S)c1cccnc1 ?
Out: 136 to 138 °C

In: // query melting point value for entry COCOc1c(OC)cc(C(S)CS)cc1OC (configuration not stated)
Out: 84 to 85 °C

In: Given the entry COc1cc2cc([N+](=O)[O-])c(OCc3ccccc3)cc2oc1=O , report its measured melting point.
Out: 226 to 228 °C

In: # get_value(readout='melting point', item= O=C(O)c1cc2cc(Cl)ccc2nc1N[C@@H](Cc1ccc(Oc2ccc(Br)cn2)cc1)C(=O)O )
Out: 145 to 150 °C

In: Which melting point value is on record for CNn1cc(C(=O)O)c(=O)c2cc(F)c(N3CCC(N)C3)c(F)c21 (configuration not stated) ?
Out: 210 to 211 °C

In: Value lookup for melting point; key = Cc1cccc(N2CCN(c3cc[nH]c(=S)c3C#N)CC2C)c1 (configuration not stated)
Out: 250 to 251 °C

In: What does the record list as melting point for O=C(C#Cc1ccc(C(F)(F)F)cc1Cl)Nc1ccc2oc(CN3CCCC3)nc2c1 ?
Out: 218 to 223 °C

###

reported_endpoint: melting point

Answered cases to consult:
COC(=O)Cc1ccc(OCCNC(=O)C2Cc3ccccc3N2S(=O)(=O)c2ccc(-c3ccc(F)cc3)c(C(F)(F)F)c2)cc1 (centres undefined); 60 °C
O=C(Cn1cnc(-c2ccc(OCc3ccccc3)cc2)n1)c1ccc(F)cc1F; 142 to 143 °C
CCC(=O)OC(C)c1ccc(-c2ccc(OCc3ccccc3)cc2)cc1 (single isomer, unassigned; (+)); 125 °C
COc1ccc(C(=O)N2CC3CC2C(=O)O3)cc1OC (centres undefined); 132 °C
Cn1cc(C2=C(c3cccc(NC(O)CCO)c3)C(=O)NC2=O)c2ccccc21 (racemic); 97.5 to 101 °C

In: Suppose we examine the compound CCOC(=O)C(Cc1ccc(NC(C)=O)c([N+](=O)[O-])c1)(NC(C)=O)C(=O)OCC ; what melting point value has been reported?
Out: 172 °C

In: Quick one: melting point of CCN(CC)CC1CCCCN1CCNC(=O)N1c2cccnc2NC(=O)c2c1c(C)nn2C (centres undefined) ?
Out: 138 to 139 °C

In: Any idea what melting point was measured for BrCCCCn1c2ccccc2c2ccccc21 ?
Out: 102 to 104 °C

In: Looking for the measured melting point of CC(C)C1(C)Cc2cc(O)c(Cl)c(Cl)c2C1=O (centres undefined) , can you help?
Out: 215 °C

###

reported_endpoint: melting point

Examples with answers:
Cc1oc(-c2ccccc2)nc1COc1ccc(COc2ncccc2CC#N)cc1; 149 to 150 °C
COc1ccc(Oc2ccn3nc(-c4ccccc4)c(-c4ccc(=O)n(C(C)C)n4)c3c2)nc1; 148 to 150 °C
Cc1csc(C(=O)c2[nH]c3ccc(Cl)cc3c2CC(=O)O)n1; 218 to 220 °C

In: Name the recorded melting point for Cc1oc(-c2ccccc2)nc1COc1cccc(CCCC2SC(=O)NC2=O)c1 (configuration not stated) .
Out: 123 to 124 °C

###

reported_endpoint: melting point

These solved cases illustrate the format of a correct answer.
COC(=O)c1sccc1COC(C)=O; 42 to 43 °C
COc1cc(-c2csc(NCCCCCC(=O)Nc3ccc(C(F)(F)F)cc3)n2)cc([N+](=O)[O-])c1O; 160 to 162 °C
CCCC(c1ccc(C(=O)Nc2ccccc2)cc1OCc1ccc(Br)cc1)n1ccnc1 (centres undefined); 168 °C
CS(=O)(=O)c1ccc2[nH]c(=O)c(C#N)cc2c1; > 310 °C
CCCn1nc2c(N)nc3c(c2c1CCCCO)CCCC3; 194 to 200 °C

In: Look at this compound and give its reported melting point. CCCCCCCCn1c(=O)c2c(Cl)cc(Cl)cc2n(Cc2ccccc2)c1=O
Out: 82 to 85 °C

In: Form field: reported melting point of COc1ccc(-c2c(-c3ccc(S(C)(=O)=O)cc3)n(C)n(C)c2=O)cc1
Out: 245 to 247 °C

In: State the recorded melting point for this entry: CCOC(=O)c1ncn(-c2nncs2)c1N
Out: 181 to 183 °C

In: Any idea what melting point was measured for Cc1c(CNCC(C)(C)C)[nH]c2c(F)c(NC(=O)c3ccc(OC[C@@H]4CCCO4)cc3)ccc12 ?
Out: 159 to 160 °C

In: Reported melting point for CCc1cc(C(=O)c2ccccc2Cl)c(-n2c(CNC(=O)c3cc4ccccc4n3CC(=O)O)nnc2C2CCCCC2)s1 : what is it?
Out: 159 to 162 °C

In: Name the reported melting point value associated with the compound CCSc1cc2c(cc1OC)CCn1c-2cc2c1C(=O)N(C(C)(C)C)CCCC2
Out: 124 to 125 °C

In: Quick check: melting point of Oc1nnc2ccccc2n1 ?
Out: 204 to 206 °C

In: Field request: melting point | item: CC(C)[C@H](NC(=O)[C@H](C)NC(=O)OCc1ccccc1)[C@@H](O)c1c(-c2ccccc2)c1=O
Out: 156 to 158 °C

In: Fill in: melting point of Oc1cccc2cc3ccccc3nc12 is ___
Out: 115 °C
